Attribution: ChEMBL document CHEMBL4041468

- protocolText: Toxicity in ig dosed Wistar rat measured 30 mins after administration via gavage at 4 h intervals during first 24 hrs and twice a day thereafter over the next 13 days
- Format: organism-based
- measurementContext: in vivo, po
readout: LD50 at 14 days (mg/kg)
Give just the number in mg/kg; leave the unit off.

Input C=C[C@@]12CN(C)[C@H]3C[C@]14C(=Nc1ccccc14)[C@H]1C[C@@H]2[C@@H]3CO1 . Output LD50 at 14 days: 300
